# key: entry, value: SOX2 degradation capability compared to the control group (Mock) (HEK-293 cells)
- Assayed target: huSOX2.V5 (huSOX2 with a V5-tag at the C-terminus) (human, UniProt P48431 1-317)
- Sequence (P48431 other isoform, or with tags, fused parts or gaps): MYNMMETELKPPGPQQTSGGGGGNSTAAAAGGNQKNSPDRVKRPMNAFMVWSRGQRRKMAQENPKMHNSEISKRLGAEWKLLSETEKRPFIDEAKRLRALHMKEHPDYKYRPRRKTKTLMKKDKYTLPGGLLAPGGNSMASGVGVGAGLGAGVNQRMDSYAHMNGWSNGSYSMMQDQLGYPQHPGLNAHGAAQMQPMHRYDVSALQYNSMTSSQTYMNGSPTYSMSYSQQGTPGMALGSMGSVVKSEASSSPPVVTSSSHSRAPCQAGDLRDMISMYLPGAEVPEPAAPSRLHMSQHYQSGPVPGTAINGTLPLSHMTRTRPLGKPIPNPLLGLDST
- Protocol: cell-based or functional assay

Solved entries (count: 3):
Binder	Recorded measurement
3A2.005 (Flag-tag - 3A2 - GS linker - SPOP 167-374) (other) DYKDDDDKTREVQLVESGGEQVQPGSSLKLSCSVSGLMISGHAMSWVRQVPGAGPEWVAVDNPGGKKNYIDSVAGRFTIARDNDANSLSLVMNGLRPEDTARYFCARVLSFKIYEGDKWALEWDYRGPGTQVTVSSGSSVNISGQNTMNMVKVPECRLADELGGLWENSRFTDCCLCVAGQEFQAHKAILAARSPVFSAMFEHEMEESKKNRVEINDVEPEVFKEMMCFIYTGKAPNLDKMADDLLAAADKYALERLKVMCEDALCSNLSVENAAEILILADLHSADQLKTQAVDFINYHASDVLETSGWKSMVVSHPHLVAEAYRSLASAQCPFLGPPRKRLKQS	≥ 70%
3A2.012 (Flag-tag - 3A2 - GS linker - RNF4 71-190) (other) DYKDDDDKTREVQLVESGGEQVQPGSSLKLSCSVSGLMISGHAMSWVRQVPGAGPEWVAVDNPGGKKNYIDSVAGRFTIARDNDANSLSLVMNGLRPEDTARYFCARVLSFKIYEGDKWALEWDYRGPGTQVTVSSGSDERRRPRRNARRLPQDHADSCVVSSDDEELSRDRDVYVTTHTPRNARDEGATGLRPSGTVSCPICMDGYSEIVQNGRLIVSTECGHVFCSQCLRDSLKNANTCPTCRKKINHKRYHPIYI	≥ 70%
3A2.011 (Flag-tag - TRIM21 2-85 - GS linker - 3A2) (other) DYKDDDDKTRASAARLTMMWEEVTCPICLDPFVEPVSIECGHSFCQECISQVGKGGGSVCPVCRQRFLLKNLRPNRQLANMVNNLKEISQEAREGSEVQLVESGGEQVQPGSSLKLSCSVSGLMISGHAMSWVRQVPGAGPEWVAVDNPGGKKNYIDSVAGRFTIARDNDANSLSLVMNGLRPEDTARYFCARVLSFKIYEGDKWALEWDYRGPGTQVTVSS	≥ 70%

Ask: Look up and state reported SOX2 degradation capability compared to the control group (Mock) (HEK-293 cells) for 3A2.007 (Flag-tag - 3A2 - GS linker - CHIP 128-303) (other) DYKDDDDKTREVQLVESGGEQVQPGSSLKLSCSVSGLMISGHAMSWVRQVPGAGPEWVAVDNPGGKKNYIDSVAGRFTIARDNDANSLSLVMNGLRPEDTARYFCARVLSFKIYEGDKWALEWDYRGPGTQVTVSSGSRLNFGDDIPSALRIAKKKRWNSIEERRIHQESELHSYLSRLIAAERERELEECQRNHEGDEDDSHVRAQQACIEAKHDKYMADMDELFSQVDEKRKKRDIPDYLCGKISFELMREPCITPSGITYDRKDIEEHLQRVGHFDPVTRSPLTQEQLIPNLAMKEVIDAFISENGWVEDY
Result: ≥ 70%
